Values compiled from ChEMBL document CHEMBL3885861.

Organism: Rattus norvegicus
Test protocol: Open TG-GATES - Regimen: Single
Type: toxicity, organism-based, Sprague-Dawley
Set-up: regimen Single, gender Male, age 6 weeks
Assay setup: in vivo, po, 100 mg/kg, 3 h, tissue Blood, route gavage, dose level Low
Readout kind: Lym (%)
Use % as the unit, but write only the number.

Consider the worked cases shown below.
Cc1nnc2n1-c1ccc(Cl)cc1C(c1ccccc1Cl)=NC2 [TRIAZOLAM] | 75
COC(=O)C1=C(C)NC(C)=C(C(=O)OC)C1c1ccccc1[N+](=O)[O-] [NIFEDIPINE] | 71.8

Consider the record given below.
Dear colleague, please send me the reported Lym for CNC(=C[N+](=O)[O-])NCCSCc1ccc(CN(C)C)o1 [RANITIDINE] when you can.
76.8

----------
Some compounds, each annotated with its measured WBC.
Species on record: Rattus norvegicus
Test protocol: Open TG-GATES - Regimen: Single
Type: toxicity, organism-based, Sprague-Dawley
Design: regimen Single, gender Male, age 6 weeks
Assay setup: in vivo, po, 1000 mg/kg, 3 h, tissue Blood, route gavage, dose level High
Use x10_2/uL as the unit, but write only the number.

Consider the worked cases shown below.
O=C(OC[C@H]1O[C@@H](OC(=O)c2cc(O)c(O)c(OC(=O)c3cc(O)c(O)c(O)c3)c2)[C@H](OC(=O)c2cc(O)c(O)c(OC(=O)c3cc(O)c(O)c(O)c3)c2)[C@@H](OC(=O)c2cc(O)c(O)c(OC(=O)c3cc(O)c(O)c(O)c3)c2)[C@@H]1OC(=O)c1cc(O)c(O)c(OC(=O)c2cc(O)c(O)c(O)c2)c1)c1cc(O)c(O)c(OC(=O)c2cc(O)c(O)c(O)c2)c1 | 104.1
CN/C(=N/CCSCc1nc[nH]c1C)NC#N | 89.9
CNC(=C[N+](=O)[O-])NCCSCc1ccc(CN(C)C)o1 | 84.3

Dear colleague, please send me the reported WBC for COC(=O)C1=C(C)NC(C)=C(C(=O)OC)C1c1ccccc1[N+](=O)[O-] when you can.
108.1

Dear colleague, please send me the reported WBC for Cc1nnc2n1-c1ccc(Cl)cc1C(c1ccccc1Cl)=NC2 when you can.
64.9

----------
Species: Rattus norvegicus
Test protocol: Open TG-GATES - Regimen: Daily Repeat
Format: toxicity, organism-based, Sprague-Dawley
Set-up: regimen Daily Repeat, gender Male, age 6 weeks
Assay setup: in vivo, po, 300 mg/kg, […], tissue Blood, route gavage, dose level Middle, time 28 day
Some compounds, each annotated with its measured WBC.
The reply should consist of the numeric value with the unit placed after it.

Consider the worked cases shown below.
CNC(=C[N+](=O)[O-])NCCSCc1ccc(CN(C)C)o1 | 117.7 x10_2/uL
Cc1nnc2n1-c1ccc(Cl)cc1C(c1ccccc1Cl)=NC2 | 88.2 x10_2/uL

Dear colleague, please send me the reported WBC for COC(=O)C1=C(C)NC(C)=C(C(=O)OC)C1c1ccccc1[N+](=O)[O-] when you can.
113.4 x10_2/uL

----------
Species on record: Rattus norvegicus
Test protocol: Open TG-GATES - Regimen: Single
Assay type: toxicity, organism-based, Sprague-Dawley
Parameters: regimen Single, gender Male, age 6 weeks
Assay setup: in vivo, po, 0 mg/kg, 9 h, tissue Blood, route gavage, dose level Control
Some compounds, each annotated with its measured Neu.
Use % as the unit, but write only the number.

Consider the worked cases shown below.
CC(C)NNC(=O)c1ccncc1 [IPRONIAZID] | 20.5
Cc1nnc2n1-c1ccc(Cl)cc1C(c1ccccc1Cl)=NC2 [TRIAZOLAM] | 19.4
CN1C(=O)CCS(=O)(=O)C1c1ccc(Cl)cc1 (centres undefined) [CHLORMEZANONE] | 20.6

Consider the record given below.
Dear colleague, please send me the reported Neu for CN/C(=N/CCSCc1nc[nH]c1C)NC#N [CIMETIDINE] when you can.
19.2
